Biological target: T1, full-length subunit H (Vma13p), N-terminal MBP fusion (S. cerevisiae, UniProt P41807 1-478)
T1 construct: V-ATPase subunit H (Vma13p), S. cerevisiae, 478 amino acids; Construct provided by the laboratory of Dr. Patricia Kane; also called MBP-H; source: E. coli, purified (amylose column; ultrafiltration or size exclusion chromatography); not shown: MBP, N-terminal, kept
T1 sequence (looked up): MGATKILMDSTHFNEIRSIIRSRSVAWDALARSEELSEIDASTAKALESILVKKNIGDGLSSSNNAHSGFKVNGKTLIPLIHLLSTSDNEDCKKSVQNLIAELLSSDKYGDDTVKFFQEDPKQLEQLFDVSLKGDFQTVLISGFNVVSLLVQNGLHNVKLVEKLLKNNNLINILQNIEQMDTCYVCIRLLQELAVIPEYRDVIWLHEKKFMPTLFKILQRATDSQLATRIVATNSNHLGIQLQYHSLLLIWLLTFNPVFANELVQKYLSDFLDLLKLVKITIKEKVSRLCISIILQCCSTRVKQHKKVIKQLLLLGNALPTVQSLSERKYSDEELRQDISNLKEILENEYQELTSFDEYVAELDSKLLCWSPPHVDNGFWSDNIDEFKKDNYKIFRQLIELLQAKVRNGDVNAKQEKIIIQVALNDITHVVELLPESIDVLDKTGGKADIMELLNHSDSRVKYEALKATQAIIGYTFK
Test: peptide or protein array; 20-mer peptides linked at their C-terminal end to cellulose and spotted in duplicate on glass slides; blocked in 2% nonfat milk; purified probe at 4 µM in TBS for 1 hour at 4°C; bound probe detected through MBP or FLAG with HRP-coupled antibody (chemiluminescence); hits by ANOVA (p 0.05, Bonferroni) and HCL in MeV, score of at least 1 in 75% of the spots
Settings: both partners purified
Ends that are not written are not given here. cellulose = not defined here
Measure name: binding result

Use these answered entries as a reference point.
Binder	Result
GWFDTLPTLSVATDLESLYE-cellulose (peptide, UniProt P32366 131-150, looked up, reading uncertain, source: synthetic peptide, spotted on glass slide array (Intavis)) [d(131-150)]	binds
FQRTFVNEIRRLDNVERQYR-cellulose (peptide, UniProt P32563 51-70, looked up, reading uncertain, V-ATPase Vo subunit a (gene Vph1), S. cerevisiae, residues 51-70; source: synthetic peptide, spotted on glass slide array (Intavis)) [a(51-70)]	binds
FRDLNSKVRAFQRTFVNEIR-cellulose (peptide, UniProt P32563 41-60, looked up, reading uncertain, V-ATPase Vo subunit a (gene Vph1), S. cerevisiae, residues 41-60; source: synthetic peptide, spotted on glass slide array (Intavis)) [a(41-60)]	binds
QEGKTTKEEITDKFNHFTEE-cellulose (peptide, UniProt P39111 41-60, looked up, reading uncertain, V-ATPase subunit F, S. cerevisiae, residues 41-60; source: synthetic peptide, spotted on glass slide array (Intavis)) [F(41-60)]	binds

Task item: So what does the record say about binding result for RNGLLSNNQYINLTQCDTLE-cellulose (peptide, UniProt P32366 21-40, looked up, reading uncertain, V-ATPase Vo subunit d, S. cerevisiae, residues 21-40; source: synthetic peptide, spotted on glass slide array (Intavis)) [d(21-40)] ?
Reply: binds

Task item: What binding result value was documented for this binder, KAEAGVQGELAEIKKIAEKK-cellulose (peptide, UniProt P48836 71-90, looked up, reading uncertain, V-ATPase subunit G (Vma10p), S. cerevisiae, residues 71-90; source: synthetic peptide, spotted on glass slide array (Intavis)) [G(71-90)] ?
Reply: binds
